Readings of CD28 scFv signal in presence of CD28 for the listed binders
System: T1, Anti-CD28 scFv (VH - linker 1 - VL) (biotinylated (site not stated))
T1 construct: Biotinylated scFv captured on neutravidin coated plates in the panning ELISA
T1 sequence (scFv, as listed by the source): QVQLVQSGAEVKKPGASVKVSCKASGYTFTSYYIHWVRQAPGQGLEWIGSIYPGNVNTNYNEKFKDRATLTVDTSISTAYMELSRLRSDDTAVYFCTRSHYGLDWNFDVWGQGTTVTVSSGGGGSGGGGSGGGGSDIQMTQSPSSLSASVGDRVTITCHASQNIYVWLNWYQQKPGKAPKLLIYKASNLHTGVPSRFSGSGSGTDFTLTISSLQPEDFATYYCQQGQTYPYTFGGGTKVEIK
Test Protocol: phage ELISA; biotinylated anti-CD28 scFv on neutravidin plate, wells pre-incubated with soluble CD28 (competitor), anti-M13-HRP detection;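 also: bound clonal phage detected by peroxidase-labelled anti-M13 antibody, compared against wells given blocking buffer alone without soluble CD28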
Respond with the number and no other words.

Before answering, review these 5 worked examples.
{"Binder": "MDWCPIYLWAECFN (tested as crude phage supernatant) [Phage-299]", "Endpoint Value": 0.307}
{"Binder": "MDWCPKSLWAECFN (tested as crude phage supernatant) [Phage-308]", "Endpoint Value": 0.162}
{"Binder": "MDWCPRSLWFLCFN (tested as crude phage supernatant) [Phage-281]", "Endpoint Value": 1.77}
{"Binder": "MDWCPKFLWDECFA (tested as crude phage supernatant) [Phage-304]", "Endpoint Value": 0.376}
{"Binder": "MERCPRYLWHMCYS (tested as crude phage supernatant) [Phage-286]", "Endpoint Value": 0.84}

Which CD28 scFv signal in presence of CD28 value is on record for MDWCPRALWDHCFF (tested as crude phage supernatant) [Phage-292] ?
0.394

Which CD28 scFv signal in presence of CD28 value is on record for MDWCPIALWDFCFA (tested as crude phage supernatant) [Phage-288] ?
0.492

Which CD28 scFv signal in presence of CD28 value is on record for MDWCPRHLWTECFS (tested as crude phage supernatant) [Phage-297] ?
0.243
